- System: SF-539
- procedure summary: NCI tumour cell line growth inhibition, 48 h
The source made the active and inactive calls. Rule as the data show it: active = GI50 up to about 1.1 µM and inactive = higher.
measured property: GI50

QUERY: GI50 for NC(CCSC(F)F)C(=O)O (centres undefined) ?
RESULT: > 100 µM (inactive)

QUERY: GI50 for Nc1nc(Cl)cc(NCC2(CO)CC(CCCCc3ccccc3)C2)n1 (centres undefined) ?
RESULT: > 100 µM (inactive)

QUERY: GI50 for O=C(O)CCSC(=O)Nc1ccc(/N=N/c2ccccc2)cc1 ?
RESULT: > 100 µM (inactive)

QUERY: GI50 for COC(=O)C(NC(=O)c1ccccc1)C(c1ccc(Cl)cc1)P(=O)(OC)OC (centres undefined) ?
RESULT: > 100 µM (inactive)

QUERY: GI50 for c1ccc2nc(-c3ccc4c(c3)OCO4)ccc2c1 ?
RESULT: 56.9 µM (inactive)

QUERY: GI50 for CCN(CC)CCOCC1CCCN2CCCCC12 (centres undefined) ?
RESULT: > 100 µM (inactive)

QUERY: GI50 for CN1C(=O)c2cccc3c([N+](=O)[O-])ccc(c23)C1=O ?
RESULT: 13.2 µM (inactive)

QUERY: GI50 for CC1OC(OC2CCCc3c(O)c4c(c(O)c32)C(=O)c2ccccc2C4=O)CC(N)C1O (centres undefined) ?
RESULT: 1.56 µM (inactive)

QUERY: GI50 for O[C@]12CCCC[C@H]1CCC2 ?
RESULT: > 100 µM (inactive)

QUERY: GI50 for CCOC(=O)C(Cl)(Cl)/S(=N\S(=O)(=O)c1ccccc1)NC(=O)c1ccccc1 (centres undefined) ?
RESULT: > 100 µM (inactive)

QUERY: GI50 for OCCCSc1ccccc1SCCCO ?
RESULT: > 100 µM (inactive)

QUERY: GI50 for C/C=C(\C)C(=O)N1c2ccccc2CC1c1c(C)[nH]c2ccccc12 (centres undefined) ?
RESULT: 50.8 µM (inactive)

QUERY: GI50 for O=C(C#Cc1ccccc1)Nc1ccccc1CC(c1c[nH]c2ccccc12)c1c[nH]c2ccccc12 ?
RESULT: 12.3 µM (inactive)

QUERY: GI50 for Cn1c(=O)c2[nH]c(N/N=C3/SCC(=O)N3Cc3ccccc3)nc2n(C)c1=O ?
RESULT: 29.1 µM (inactive)

* * *

Kindly supply the reported GI50 values for the records listed here.
- Tested on: BT-549
- procedure summary: NCI tumour cell line growth inhibition, 48 h
Counter-ions that a name gives are not always drawn. Activity calls are given as the source filed them. No stated cut-off is given here; in the data, active = GI50 up to about 1.1 µM and inactive = higher.

QUERY: Record lookup: for BT-549, what GI50 belongs to C=C1C(=O)O[C@@H]2C[C@@]3(C)CCC[C@H](C)C3=C[C@H]12 [HELENINE] ?
RESULT: 3.62 µM (inactive)

QUERY: Record lookup: for BT-549, what GI50 belongs to OCCCSc1ccccc1SCCCO ?
RESULT: > 100 µM (inactive)

QUERY: Record lookup: for BT-549, what GI50 belongs to Cc1ccc(/C=C2/N/C(=N\N=C/C(O)C(O)C(O)CO)NC2=O)cc1 (stereo not given) ?
RESULT: > 100 µM (inactive)

QUERY: Record lookup: for BT-549, what GI50 belongs to O=C1C=CC(=O)c2c1cc([N+](=O)[O-])c1ccoc21 ?
RESULT: 16.9 µM (inactive)

QUERY: Record lookup: for BT-549, what GI50 belongs to Cc1nc2c(Cl)cc(Cl)cc2c2c1CCO2 ?
RESULT: > 100 µM (inactive)

QUERY: Record lookup: for BT-549, what GI50 belongs to O=C(c1ccsc1)c1nccc2c1cnc1ccccc12 ?
RESULT: > 100 µM (inactive)

QUERY: Record lookup: for BT-549, what GI50 belongs to CCOC(=O)C(=NN(C)c1ncccc1N)C(=O)OCC ?
RESULT: > 100 µM (inactive)

QUERY: Record lookup: for BT-549, what GI50 belongs to COC(=O)C(Cc1cn(C(C)=O)c2ccccc12)P(=O)(OC)OC (stereo not given) ?
RESULT: > 100 µM (inactive)

QUERY: Record lookup: for BT-549, what GI50 belongs to CC12CCC([C@H](Nc3cc(C(F)(F)F)cc(C(F)(F)F)c3)C1=O)C2(C)C (stereo not given in full) ?
RESULT: > 100 µM (inactive)

QUERY: Record lookup: for BT-549, what GI50 belongs to O=S(=O)(/N=c1/[nH]c2ccccc2n1S(=O)(=O)c1ccccc1)c1ccccc1 ?
RESULT: 41.2 µM (inactive)

QUERY: Record lookup: for BT-549, what GI50 belongs to O=C(c1cccc2ccccc12)C1(Br)S(=O)(=O)OCCOS1(=O)=O ?
RESULT: > 100 µM (inactive)

QUERY: Record lookup: for BT-549, what GI50 belongs to COC(=O)c1ccc(/C=N/c2ccc(S(N)(=O)=O)cc2)cc1 ?
RESULT: > 100 µM (inactive)

QUERY: Record lookup: for BT-549, what GI50 belongs to CN(C)CCn1c(=O)c2ccc3c4c(nn3CCN(C)C)c3ccccc3n(c1=O)c24 ?
RESULT: 1.84 µM (inactive)

QUERY: Record lookup: for BT-549, what GI50 belongs to CCOC(=O)Cn1nc2ccc(Nc3nc4ccccc4nc3C(=O)OCC)cc2n1 ?
RESULT: > 100 µM (inactive)

QUERY: Record lookup: for BT-549, what GI50 belongs to O=C1/C(=C2/C(=O)N(c3ccccc3)c3ccccc32)Nc2ccccc21 ?
RESULT: 45 µM (inactive)

QUERY: Record lookup: for BT-549, what GI50 belongs to COc1cc2c(SCCN(C)C)nc3ccccc3c2c2ccccc12 ?
RESULT: 5.7 µM (inactive)

QUERY: Record lookup: for BT-549, what GI50 belongs to O=C1/C(=C/c2ccc3c(c2)OCO3)CCC1CN1CCOCC1 (stereo not given) ?
RESULT: 18 µM (inactive)

QUERY: Record lookup: for BT-549, what GI50 belongs to C=C1C[C@@H]2O[C@H]3[C@H]4[C@@H](C[C@@H](C)[C@@H](OC(C)=O)[C@H]42)[C@@H](C)CO[C@@]3(C)[C@H](OC(=O)CCCCCCC)CC1=O ?
RESULT: 18.1 µM (inactive)

QUERY: Record lookup: for BT-549, what GI50 belongs to C=CCN(c1cc(OC)c2[nH]c(C(=O)OCC)c(C)c2c1[N+](=O)[O-])S(C)(=O)=O ?
RESULT: 22.1 µM (inactive)

QUERY: Record lookup: for BT-549, what GI50 belongs to CCOP(=O)(OCC)/C(F)=C/c1ccccc1 ?
RESULT: > 100 µM (inactive)

QUERY: Record lookup: for BT-549, what GI50 belongs to CN1CN(c2ccccc2)C2(CCN(Cc3csc4ccccc34)CC2)C1=O ?
RESULT: 7.35 µM (inactive)

QUERY: Record lookup: for BT-549, what GI50 belongs to C=CC(C)(C)n1cc(C2=C(O)C(=O)C(c3cn(C(C)(C)C=C)c4ccccc34)=C(O)C2=O)c2ccccc21 ?
RESULT: 1.01 µM (active)

QUERY: Record lookup: for BT-549, what GI50 belongs to Cc1nc2c(cc1C(=O)N/N=C/c1ccc([N+](=O)[O-])cc1)c(=O)n(C)c(=O)n2C ?
RESULT: 30.5 µM (inactive)

QUERY: Record lookup: for BT-549, what GI50 belongs to CCSC1=CC(=O)c2nc3ccccc3c3ccnc1c23 ?
RESULT: 12.9 µM (inactive)

QUERY: Record lookup: for BT-549, what GI50 belongs to C=CCN1C(=O)CS/C1=N\NC(=O)CSc1nc2ccccc2c(=O)n1CC ?
RESULT: > 100 µM (inactive)

QUERY: Record lookup: for BT-549, what GI50 belongs to COc1cc(/C=C/C(=O)CC(=O)/C=C/c2cc(C)c(O)c(OC)c2)cc(C)c1O ?
RESULT: > 100 µM (inactive)

QUERY: Record lookup: for BT-549, what GI50 belongs to Cn1c2c(c3c(=O)[nH]ncc31)CCc1ccccc1-2 ?
RESULT: 23.8 µM (inactive)

QUERY: Record lookup: for BT-549, what GI50 belongs to CC(=O)O[C@H]1CC[C@H]2[C@@H]3CC[C@H]4Nc5c(cnn5S(C)(=O)=O)C[C@]4(C)[C@H]3CC[C@]12C ?
RESULT: 27.5 µM (inactive)

QUERY: Record lookup: for BT-549, what GI50 belongs to CN1[C@@H]2C[C@@H](OC(=O)[C@H](CO)c3ccccc3)C[C@H]1[C@@H]1O[C@@H]12 [SCOPOLAMINE HYDROBROMIDE] ?
RESULT: > 100 µM (inactive)

QUERY: Record lookup: for BT-549, what GI50 belongs to CCCCNC1CCC2(SCCS2)c2[nH]c3ccccc3c21 (stereo not given) ?
RESULT: 23.4 µM (inactive)
